Cited source for all entries: PubChem BioAssay AID434951

# ASSAY_TARGET: Hypoxia-inducible factor 1-alpha (Homo sapiens) (UniProt Q16665)
# Sequence (Q16665 whole entry, looked up): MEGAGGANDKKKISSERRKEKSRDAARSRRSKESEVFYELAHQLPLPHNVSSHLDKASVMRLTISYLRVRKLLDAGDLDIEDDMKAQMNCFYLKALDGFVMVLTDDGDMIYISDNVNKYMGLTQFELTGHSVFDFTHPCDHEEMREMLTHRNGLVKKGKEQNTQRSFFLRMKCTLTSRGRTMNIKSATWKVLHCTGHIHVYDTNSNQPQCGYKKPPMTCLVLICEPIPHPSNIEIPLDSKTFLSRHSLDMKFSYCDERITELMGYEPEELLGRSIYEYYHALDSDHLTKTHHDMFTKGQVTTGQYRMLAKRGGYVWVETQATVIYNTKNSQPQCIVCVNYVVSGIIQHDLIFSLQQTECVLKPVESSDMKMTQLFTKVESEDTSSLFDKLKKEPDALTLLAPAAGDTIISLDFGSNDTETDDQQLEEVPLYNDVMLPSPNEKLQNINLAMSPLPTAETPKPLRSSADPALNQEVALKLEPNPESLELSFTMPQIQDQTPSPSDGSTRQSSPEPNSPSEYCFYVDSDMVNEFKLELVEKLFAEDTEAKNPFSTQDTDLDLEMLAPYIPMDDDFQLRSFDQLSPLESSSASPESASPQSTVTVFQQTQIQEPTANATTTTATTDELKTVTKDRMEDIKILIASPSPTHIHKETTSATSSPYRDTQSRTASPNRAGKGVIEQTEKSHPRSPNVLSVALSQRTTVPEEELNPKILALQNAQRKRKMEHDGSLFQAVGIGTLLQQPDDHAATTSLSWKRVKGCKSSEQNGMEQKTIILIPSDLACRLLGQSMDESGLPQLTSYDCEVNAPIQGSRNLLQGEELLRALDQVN
# PROCEDURE_TEXT: activators of HIF1alpha nuclear accumulation, confirmation, imaging, fluorescence, U2OS GFP-HIF1alpha (AID 434951)
# CONDITIONS: U2OS GFP-HIF1alpha nuclear intensity, high-content imaging
The source made the active and inactive calls.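 The calls were made as follows: active = a fitted half-maximal concentration EC50 for the rise in nuclear signal no higher than ten times the top dose tested; inconclusive = flat fit with activity between 30% and 70%, or unusable fit; inactive = EC50 beyond ten times the top dose.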
Outcomes: T = active, F = inactive

Cc1ccc(S(=O)(=O)Nc2cc(-c3ccc(Cl)cc3)nn2C)cc1: F
CC(=O)c1cccc(NC(=O)CSC(=O)c2ccccc2)c1: F
Cc1cc(NC(=O)CSc2nc3c(c(=O)n2-c2ccc(Cl)cc2)SCC3)no1: F
Cn1cccc1C(=O)NC(=O)COC(=O)c1cc(S(=O)(=O)N2CCCCC2)ccc1Cl: F
CCCCC(=O)NC(c1ccc(Cl)cc1)c1ccc2cccnc2c1O (stereo unspecified): T
CC(=O)NC(c1ccc2ccccc2c1)c1ccc2cccnc2c1O (stereo unspecified): T
CCCC(=O)NC(c1ccc(C)cc1)c1ccc2cccnc2c1O (stereo unspecified): T
N/C(=N\OC(=O)Cc1cccs1)c1ccccc1: F
Oc1ccc(N=Nc2ccc3c(c2)OCCO3)c2cccnc12: F
CCN(CC)c1ccc(/C=N/NC(=O)c2cccc(S(=O)(=O)N3CCOCC3)c2)c(O)c1: T
Cc1sc(NC(=O)c2ccco2)c(CN2CCC(C)CC2)c1C: F
CC(C)(C)NC(=O)CN(Cc1ccc2c(c1)OCO2)C(=O)CNS(=O)(=O)c1ccc(F)cc1: F
Oc1ccc(-c2cn3ccccc3n2)cc1O: F
CCN(CCN(C)C)C(=O)C1CCN(S(=O)(=O)c2c(C)noc2/C=C/c2ccccc2F)CC1: T
Cc1cc(C)[n+](Cc2ccccc2)cc1C(N)=O: F
COc1ccc(CSCC(=O)Nc2ccc(S(=O)(=O)N3CCCCCC3)cc2)cc1: F
O=C(C[n+]1ccn(CCCNP2(=O)C=C(c3ccccc3)OC(c3ccccc3)=C2)c1)c1cccs1: F
O=C(NCCCN1CCN(c2ccccc2F)CC1)Nc1ccccc1[N+](=O)[O-]: F
O=C(N/N=C/c1c(O)ccc2ccccc12)c1ccc(CO)nc1: T
CN(Cc1cccs1)C(=O)CSc1nc(N)cc(N)n1: F
COc1ccc(CCNc2nncc(=O)[nH]2)cc1OC: F
NC(=O)c1sc2nccc(Nc3ccccc3)c2c1N: F
O=[N+]([O-])c1cc(Cl)cc(/C=N\Nc2ccccn2)c1O: T
CCN(CC)CCOC(=O)C(Cc1ccco1)Cc1cccc2ccccc12 (stereo unspecified): F
COc1ccccc1C/C(N)=N/O: F
COc1ccc(C(=O)CCNc2ccc(F)cc2)cc1: F
O=C(Nc1nc(-c2ccccn2)cs1)c1ccc(S(=O)(=O)N2CCCCC2)cc1: T
Cn1cccc1-c1cc(C(=O)N/N=C/c2cc(Br)ccc2O)[nH]n1: T
Cc1ccsc1C(=O)N/N=C/c1ccc([N+](=O)[O-])cc1: F
Cc1ccc(C2(C)NC(=O)N(CC(=O)NC(=O)NC(C)(C)C)C2=O)cc1 (stereo unspecified): F
Cc1ccc(C(CC(=O)O)C2CCOC(C)(C)C2)cc1 (stereo unspecified): F
Cc1ccc2nc(-c3ccccc3NC(=O)CCC(=O)O)c(=O)[nH]c2c1: F
O=C(c1ccc(Cl)cc1Cl)N1CCN(c2ccc(N3CCOCC3)nn2)CC1: F
CC(=O)Nc1sc(-c2ccccc2)nc1-c1ccccc1: F
CCc1ccc(NC(=O)COC(=O)c2cccs2)cc1: F
S=c1[nH]nc(-c2ccco2)n1/N=C/c1cccs1: F
O=C(NCc1ccc(F)cc1)C1CCN(S(=O)(=O)N2CCOCC2)CC1: F
CCC(=O)NC(c1ccc(Cl)cc1Cl)c1ccc2cccnc2c1O (stereo unspecified): T
O=C(N/N=C\c1cc(Br)ccc1O)c1ccc(S(=O)(=O)N2CCCCC2)cc1: T
O=C(N/N=C/c1ccccn1)c1ccc(Br)cc1: T
OCCCNc1c2ccccc2nc2ccccc12: F
COC(=O)C1=C(C)N(C)C(=O)NC1c1cc(Cl)c(O)c(OC)c1 (stereo unspecified): F
COc1ccccc1CCNS(=O)(=O)c1cc2c3c(c1)C(C)C(=O)N3CCC2 (stereo unspecified): F
O=C(NCCc1ccccc1)c1cc(-c2ccco2)on1: T
Cc1cc(S(=O)(=O)ON2C(=O)c3ccccc3C2=O)ccc1F: T
CCc1ccc(OCC(=O)Nc2ccncc2)c(Br)c1: F
